tested on: HCT-15 colon; test: NCI-60 one-dose screen, 48 h; conditions: 10 µM unless noted
This is part of a sample that, as a whole, favours compounds with a hit. Of some 83,000 tested, about 20% had one in any assay. Activity calls are given as the source filed them. Rule for the calls: active = growth percent below 10; inactive = the rest.
Possible outcomes: active, inactive

molecule=C#CCC(C(=O)OCC)C(=O)OCC class_label=inactive
molecule="COc1cc2c(c(OC)c1)C1c3cc(OC)ccc3NC(=O)N1CC2 (stereo unspecified)" class_label=inactive
molecule=COc1ccc(/C=C/C(=C/c2c(O)[nH]c3cc(Br)ccc23)N=O)cc1 class_label=inactive
molecule=COc1ccc(-c2cc(-c3ccc(Cl)cc3)nc(NCCCCNc3ccnc4cc(Cl)ccc34)n2)cc1 class_label=active
molecule=COc1ccc(/C=C2\N=C(Nc3ccccc3)N(NC(=O)c3ccccn3)C2=O)cc1 class_label=inactive
molecule="COc1ccc(C2CC(c3ccc4ccccc4c3)=NN2c2nc(O)c(C3=c4cc(OC)ccc4=NC3=O)s2)cc1 (stereo unspecified)" class_label=active
molecule="CCN(CC)CCSC(=O)C(O)(c1ccccc1)C1CCCC1 (stereo unspecified)" class_label=inactive
molecule=Fc1cc2[nH]ncc2c2c3c(c(-c4cn[nH]c4)nc12)CCCC3 class_label=active
molecule=CC(C)(C)c1cc(C(=O)N2CCC(C(=O)NCCN)CC2)cc(C(C)(C)C)c1 class_label=inactive
molecule=CCCCNC(=O)NS(=O)(=O)Cc1ccccc1 class_label=inactive
molecule=CCCSc1nc(N)nc2nc[nH]c12 class_label=inactive
molecule=O=C(Nc1cccc(C2=NCCN2)c1)c1cccc(C(=O)Nc2cccc(C3=NCCN3)c2)c1 class_label=inactive
molecule=CC1(C)C(=O)/C(=C\c2ccco2)C[C@]2(C)[C@H]3CC=C4[C@@H]5C[C@](C)(C(=O)O)CC[C@]5(C)CC[C@@]4(C)[C@]3(C)CC[C@@H]12 class_label=active
molecule=Cn1cc(-c2noc(-c3cn(C)c4ncc(F)cc34)n2)c2ccccc21 class_label=inactive
molecule=COCCCNc1nc(NC(=O)c2cc(OC)cc(OC)c2)cc(-c2cccnc2)n1 class_label=inactive
molecule=COc1cc(C(=O)/C=C/c2c(-c3ccc(F)cc3)nc3sccn23)cc(OC)c1OC class_label=inactive
molecule=C#C[C@]1(O)CC[C@H]2[C@@H]3CC=C4c5nc(Nc6ccc(OC)cc6OC)sc5CC[C@]4(C)[C@H]3CC[C@@]21C class_label=active
molecule=Nc1cccc2c1C(=O)c1cccc(NC(=O)c3ccccc3)c1C2=O class_label=inactive
molecule=CCOC(=O)/C(C#N)=C(\C)CCc1ccccc1 class_label=inactive
molecule="COc1ccc2c(c1)C(C)Cc1c(Cl)ncnc1N2C (stereo unspecified)" class_label=active
molecule=CC(C)c1ccc(C(=O)Nc2nc3ccc(O)cc3s2)cc1 class_label=active

* * *

system: HS 578T breast; experiment: NCI-60 one-dose screen, 48 h; settings: 10 µM unless noted
This is part of a sample that, as a whole, favours compounds with a hit. Of some 83,000 tested, about 20% had one in any assay. Active and inactive are the calls of the source. Rule for the calls: active = growth percent below 10; inactive = the rest.
Classes used: y for active, n for inactive

compound=O=C(N[C@@H]1CCCc2ccccc21)[C@H](CCC(=O)N1CCN(C2CCCCC2)CC1)N1C(=O)[C@@H](N2C(=O)OC[C@@H]2c2ccccc2)[C@H]1/C=C/c1ccccc1 class_label=n
compound=FC(F)(F)c1ccc2c(c1)Sc1ccccc1N2 class_label=n
compound=CC(C)CCSC1=CC(=O)c2ccccc2C1=O class_label=n
compound=O=S(=O)(NCc1ccccc1)c1ncnc2nc[nH]c12 class_label=n
compound=O=C(NCc1ccccc1)C(Cl)Cl class_label=n
compound=CCn1cc(-c2ccnc(NCCNS(=O)(=O)c3cccc4ccccc34)c2)c(-c2cccc(O)c2)n1 class_label=n
compound=CC1=CC[C@@H]2C(C)(C)C(=O)CC[C@@]2(C)[C@@H]1COc1ccc2ccc(=O)oc2c1 class_label=n
compound=C#CCNC(=O)CC[C@@H](C)[C@H]1CC[C@H]2[C@@H]3CC[C@@H]4CC(=O)CC[C@]4(C)[C@H]3CC[C@]12C class_label=y
compound=O=C(O)CSCc1nnc2n(Cc3ccccc3)c(=O)c3c4c(sc3n12)CCCC4 class_label=n
compound="O=C1CC(c2ccc3c(c2)OCO3)Nc2ccccc21 (stereo not given)" class_label=n

* * *

system: CAKI-1 renal; assay: NCI-60 one-dose screen, 48 h; conditions: 10 µM unless noted
About 83,000 compounds went through this panel and 20% of them were active in at least one assay; those are over-represented in the sample as a whole. Calls of active or inactive are those of the source. How the source made its calls: active means growth percent below 10; inactive means the rest.
Possible outcomes: active, inactive

molecule=CC(=O)O.CC(=O)O.O.[Fe] class_label=inactive
molecule=C=C(C)[C@@H]1CC[C@]2(C(N)=O)CC[C@]3(C)[C@H](CC[C@@H]4[C@@]5(C)C/C(=C/c6cccnc6)[C@H](O)C(C)(C)[C@@H]5CC[C@]43C)[C@@H]12 class_label=inactive
molecule=CCCC[C@@H](C=O)NC(=O)[C@H](CC(C)C)NC(=O)[C@H](CC(C)C)NC(=O)OCc1ccccc1 class_label=active
molecule=Nc1nc(Cl)c2ncn(Cc3cc4c(cc3I)OCO4)c2n1 class_label=inactive
molecule=C=C(C)[C@@H]1CC[C@]2(C)[C@H](CC[C@@H]3[C@@H]([C@@](C)(O)CCC=C(C)C)CC[C@]32C)[C@@]1(C)CCC(=O)O class_label=active
molecule="Cc1ccc(S(=O)(=O)N/N=C2\\CC3CCC2(C)C3(C)C)cc1 (centres undefined)" class_label=inactive
molecule=CCOC(=O)n1cc(C2=C(c3ccc(OC)c(OC)c3)COC2=O)c2ccccc21 class_label=inactive
molecule="COc1ccccc1S(=O)Nc1ccccc1 (centres undefined)" class_label=inactive
molecule=CS(=O)(=O)c1cccnn1 class_label=inactive

* * *

Test system: HCT-15 colon
Experiment: NCI-60 one-dose screen, 48 h
Settings: 10 µM unless noted
Method: Growth inhibition of the HCT-15 human tumor cell line is measured as a screen for anti-cancer activity. Cells are grown in 96 well plates and exposed to the test compound for 48 hours. Compounds are tested at a single concentration, which is 10^-5 M for most compounds. The reported endpoint is percent growth (GI% or GIPRCNT), where numbers from 0 - 100% represent growth inhibition, and numbers from -100% - 0 represent cell death. For example, a value of 40 represents 60% growth inhibition. […]
This is part of a sample that, as a whole, favours compounds with a hit. Of some 83,000 tested, about 20% had one in any assay. Activity calls are given as the source filed them. How the source made its calls: active means growth percent below 10; inactive means the rest.
Labels: active, inactive

molecule=C=C(C)[C@@H]1CC[C@]2(C)[C@H](CC[C@@H]3[C@@H]([C@@](C)(O)CCC=C(C)C)CC[C@]32C)[C@@]1(C)CCC(=O)N1CCN(C)CC1 test_target="HCT-15 colon" class_label=active
molecule=CCCc1cc2cc(-n3nc(C)c4c3CC(C)(C)CC4=O)cc(NC3CCSCC3)c2c(=O)[nH]1 test_target="HCT-15 colon" class_label=inactive
molecule=O=C(O)c1cn(C2CC2)c2cc(N3CCN(Cc4cc(Cl)ccc4O)CC3)c(F)cc2c1=O test_target="HCT-15 colon" class_label=inactive
molecule=Cn1cc(-c2nnc(-c3cn(C)c4ncc(Br)cc34)o2)c2ccccc21 test_target="HCT-15 colon" class_label=inactive
molecule="N#CC1C(=O)NC(c2ccccc2[N+](=O)[O-])c2sc3c(F)cccc3c21 (centres undefined)" test_target="HCT-15 colon" class_label=inactive
molecule=CCOc1ccc(S(=O)(=O)Nc2ccc3c(c2)N(S(=O)(=O)CC)CCC3)cc1 test_target="HCT-15 colon" class_label=inactive
molecule=C#CCNC(=O)CC[C@@H](C)[C@H]1CC[C@H]2[C@@H]3CC[C@@H]4CC(=O)CC[C@]4(C)[C@H]3CC[C@]12C test_target="HCT-15 colon" class_label=active
molecule=CC1=C/C(=C(\c2cc(C)c(O)c(C(=O)O)c2)c2c(Cl)cccc2Cl)C=C(C(=O)O)C1=O test_target="HCT-15 colon" class_label=inactive
molecule=CCNC(=O)N1CCc2c(Cl)c3c(c(OC)c2[C@@H]1[C@H]1OCc2c1ccc(OC)c2OC)OCCO3 test_target="HCT-15 colon" class_label=inactive
molecule=Clc1ccc2nc(-c3ccc(-c4ccc(/C=N/NC5=NCCN5)cc4)s3)cn2c1 test_target="HCT-15 colon" class_label=active
molecule="CC[C@]1(O)CC2CN(CCc3c([nH]c4ccccc34)[C@@](C(=O)OC)(c3cc4c(cc3OC)N(C=O)[C@H]3[C@@](O)(C(=O)OC)[C@H](OC(C)=O)[C@]5(CC)C=CCN6CC[C@]43[C@@H]65)C2)C1 (some centres undefined)" test_target="HCT-15 colon" class_label=inactive
molecule=CCN(CCO)CCC(=O)c1ccc([N+](=O)[O-])cc1 test_target="HCT-15 colon" class_label=inactive
molecule=CC(C)CCNCC(C)(C)O test_target="HCT-15 colon" class_label=inactive
molecule=CN(C)c1cc(NN=C(c2ccc(O)cc2)c2ccc(O)cc2)c([N+](=O)[O-])cc1[N+](=O)[O-] test_target="HCT-15 colon" class_label=inactive
molecule=CC(C)(C)OC(=O)N1C=C/C(=C\Cn2cc(-c3ccccc3)nn2)CC1 test_target="HCT-15 colon" class_label=inactive
molecule="CCOC(=O)c1nn(C2CCCCO2)c2ccc(NS(=O)(=O)c3ccc(C)cc3)cc12 (centres undefined)" test_target="HCT-15 colon" class_label=inactive
molecule="CCN(CC)CC(C)Nc1ccc(C)c2sc3ccccc3c(=O)c12 (centres undefined)" test_target="HCT-15 colon" class_label=inactive
molecule=O=C(CSc1nc2ccc([N+](=O)[O-])cc2[nH]1)Nc1cccc(Cl)c1 test_target="HCT-15 colon" class_label=inactive
molecule=CCn1cc(-c2ccnc(NCCNS(=O)(=O)c3ccc(Br)cc3)c2)c(-c2cccc(OC)c2)n1 test_target="HCT-15 colon" class_label=inactive
molecule=COc1ccc(-c2cc(-c3ccc(Cl)cc3)nc(SCCCCCCC(=O)NO)n2)cc1 test_target="HCT-15 colon" class_label=inactive
molecule=O=C(Nc1cccnc1)c1ccc2ccc3ccc(C(=O)Nc4cccnc4)nc3c2n1 test_target="HCT-15 colon" class_label=inactive
molecule="CC/C=C(\\C)C(CCC)(CN=O)C(=O)OCC (centres undefined)" test_target="HCT-15 colon" class_label=inactive
molecule=COc1ccc(C2=C(c3cn(C)c4ccccc34)C(=O)OC2)cc1OC test_target="HCT-15 colon" class_label=inactive
molecule=CCOc1ccc(/C=C(\C#N)c2cc3ccccc3[nH]2)cc1 test_target="HCT-15 colon" class_label=inactive
molecule=NC1=NC(=O)NC1(c1ccccc1)c1ccccc1 test_target="HCT-15 colon" class_label=inactive
molecule=CCNc1cc2c(cc1Br)-c1ccccc1C2=O test_target="HCT-15 colon" class_label=inactive
molecule=CCOC(=O)c1cc(C(=O)c2ccc(OC)c(OC)c2)n2ccc(-c3ccccn3)cc12 test_target="HCT-15 colon" class_label=inactive
molecule=CCCCCCCCCCCCCC[n+]1cccc(C(N)=O)c1 test_target="HCT-15 colon" class_label=inactive
molecule="Cc1ccc(S(=O)(=O)N/N=C2\\CC3CCC2(C)C3(C)C)cc1 (centres undefined)" test_target="HCT-15 colon" class_label=inactive
molecule=CO[C@H]1CC[C@@]2(C)C(=CC[C@H]3[C@@H]4C[C@H](O)C[C@@]4(C)CC[C@@H]32)C1 test_target="HCT-15 colon" class_label=inactive
molecule=CSc1nc(=S)c2nc(SC)n(-c3ccccc3)c2[nH]1 test_target="HCT-15 colon" class_label=inactive
molecule=CC(C)(C)c1cc(C(=O)Nc2ccc(C(=O)NCCN)cc2)cc(C(C)(C)C)c1 test_target="HCT-15 colon" class_label=inactive
molecule=O=C(OCc1ccc2c(Cl)cc(Cl)c(O)c2n1)N1CCNCC1 test_target="HCT-15 colon" class_label=inactive
molecule="CCN(CCNc1ccc(C)c2sc3cc(Cl)ccc3c(=O)c12)CC(C)O (centres undefined)" test_target="HCT-15 colon" class_label=active
molecule=COc1ccc2nc3cc(Cl)ccc3c(Nc3ccc(O)cc3)c2c1 test_target="HCT-15 colon" class_label=inactive
molecule="CC1Cc2c(Cl)ncnc2N(C)c2ccc(O)cc21 (centres undefined)" test_target="HCT-15 colon" class_label=inactive
molecule=Cn1cc(-c2noc(-c3cn(C)c4ncc(Br)cc34)n2)c2cc(Cl)ccc21 test_target="HCT-15 colon" class_label=inactive
molecule=COc1ccc(-c2c(C)nn3c(NCCN4CCOCC4)cc(C)nc23)cc1OC test_target="HCT-15 colon" class_label=inactive
molecule=C=C(C)[C@@H]1CC[C@]2(C(N)=O)CC[C@]3(C)[C@H](CC[C@@H]4[C@@]5(C)C/C(=C/c6cccnc6)C(=O)C(C)(C)[C@@H]5CC[C@]43C)[C@@H]12 test_target="HCT-15 colon" class_label=inactive
